- TARGET: MERTK (Homo sapiens)
- Sequence (Q12866 21-999): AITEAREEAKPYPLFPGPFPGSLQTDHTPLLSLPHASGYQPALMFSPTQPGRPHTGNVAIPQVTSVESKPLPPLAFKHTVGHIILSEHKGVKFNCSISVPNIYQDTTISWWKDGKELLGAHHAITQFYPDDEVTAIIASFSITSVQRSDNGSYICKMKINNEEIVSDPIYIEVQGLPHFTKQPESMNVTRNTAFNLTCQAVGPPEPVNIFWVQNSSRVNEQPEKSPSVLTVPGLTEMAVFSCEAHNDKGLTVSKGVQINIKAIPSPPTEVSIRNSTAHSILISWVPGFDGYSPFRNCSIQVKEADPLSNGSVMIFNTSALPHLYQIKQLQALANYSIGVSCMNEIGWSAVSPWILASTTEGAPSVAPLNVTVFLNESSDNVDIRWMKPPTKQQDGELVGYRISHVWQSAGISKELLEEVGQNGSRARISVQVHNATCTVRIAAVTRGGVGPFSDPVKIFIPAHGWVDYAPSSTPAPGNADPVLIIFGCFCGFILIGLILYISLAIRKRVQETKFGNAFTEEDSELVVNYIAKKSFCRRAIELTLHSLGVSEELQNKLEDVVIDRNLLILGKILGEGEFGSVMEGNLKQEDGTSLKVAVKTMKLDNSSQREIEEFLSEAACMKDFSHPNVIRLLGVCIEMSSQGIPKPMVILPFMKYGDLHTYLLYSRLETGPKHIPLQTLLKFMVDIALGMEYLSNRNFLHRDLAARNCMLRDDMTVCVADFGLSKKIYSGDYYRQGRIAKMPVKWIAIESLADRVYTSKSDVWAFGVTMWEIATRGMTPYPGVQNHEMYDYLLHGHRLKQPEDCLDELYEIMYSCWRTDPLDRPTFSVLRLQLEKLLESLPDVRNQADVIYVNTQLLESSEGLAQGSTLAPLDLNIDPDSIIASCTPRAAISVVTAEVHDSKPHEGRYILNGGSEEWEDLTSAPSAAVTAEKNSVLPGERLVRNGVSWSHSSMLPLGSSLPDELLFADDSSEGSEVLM
- PROCEDURE TEXT: Kinase assay at Km ATP (Eurofins Discovery), Mer
- Assay type: biochemical
- RUN CONDITIONS: Table 3; Km ATP; read-out: IC50 (nM) MER
EXPERIMENTAL READOUT: IC50
The answer consists of two parts: a number and, after it, its unit.

Data request: Which measured IC50 value corresponds to COc1cc(Nc2ncc3ccn([C@H]4CC[C@H](O)CC4)c3n2)cc(N2CCC(N3CCCC3)CC2)c1 ?
Data returned: 484 nM

Data request: Which measured IC50 value corresponds to COc1cc(Nc2ncc3ccn(-c4ccccc4)c3n2)cc(N2CCC(N3CCCC3)CC2)c1 ?
Data returned: 17 nM

Data request: Which measured IC50 value corresponds to COc1cc(Nc2ncc3ccn(-c4ccc(OC(F)(F)F)cc4)c3n2)cc(N2CCC(N3CCCC3)CC2)c1 ?
Data returned: 9 nM

Data request: Which measured IC50 value corresponds to COc1cc(Nc2ncc3ccn(-c4nccs4)c3n2)cc(N2CCC(N3CCCC3)CC2)c1 ?
Data returned: 64 nM
